Documented t1/2 across a set of binders
assayTarget: T1, Ab-1
T1 construct: also called anti-CD28 scFv harbored in Ab-1
T1 sequence (heavy, as listed by the source, chain 1 of 2): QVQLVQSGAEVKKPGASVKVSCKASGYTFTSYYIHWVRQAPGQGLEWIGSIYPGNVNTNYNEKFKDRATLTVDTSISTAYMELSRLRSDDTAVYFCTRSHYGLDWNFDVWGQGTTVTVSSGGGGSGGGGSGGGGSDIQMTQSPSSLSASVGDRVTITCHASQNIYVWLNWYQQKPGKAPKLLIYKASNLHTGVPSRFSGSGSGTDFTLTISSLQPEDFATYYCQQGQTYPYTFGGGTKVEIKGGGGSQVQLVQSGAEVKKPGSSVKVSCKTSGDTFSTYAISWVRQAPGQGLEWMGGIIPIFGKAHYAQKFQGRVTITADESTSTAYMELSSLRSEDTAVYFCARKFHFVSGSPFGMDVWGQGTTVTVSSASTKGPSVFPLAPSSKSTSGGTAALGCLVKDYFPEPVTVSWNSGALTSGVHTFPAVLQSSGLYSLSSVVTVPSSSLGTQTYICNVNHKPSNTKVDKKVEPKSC
T1 sequence (light, as listed by the source, chain 2 of 2): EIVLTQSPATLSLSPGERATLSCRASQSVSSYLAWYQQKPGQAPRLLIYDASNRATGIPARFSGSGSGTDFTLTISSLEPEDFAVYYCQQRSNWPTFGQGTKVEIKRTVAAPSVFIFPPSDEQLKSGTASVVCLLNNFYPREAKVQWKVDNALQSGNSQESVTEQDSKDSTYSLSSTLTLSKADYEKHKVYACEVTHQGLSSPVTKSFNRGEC
test: BLI (Octet), peptide on sensor, Ab-1 titrated, 1:1 model
No end group written: not given here.
Answer format: numeric, min implied, no suffix.

binder="MDWCPRDLWVHCFA (cysteine pairing not given here; also: biotinylated, site not given here) [Peptide-1]" parametermeasured=t1/2 unit=min result=15.5

Exercise: Form field: reported t1/2 of KDWCPRDLWVHCFA (cysteine pairing not given here; also: biotinylated, site not given here) [Peptide-12]
Solution: 4.5

Exercise: I have this binder here, QDWCPRDLWVHCFA (cysteine pairing not given here; also: biotinylated, site not given here) [Peptide-6] , and I need its recorded t1/2.
Solution: 4.2

Exercise: So what does the record say about t1/2 for TDWCPRDLWVHCFA (cysteine pairing not given here; also: biotinylated, site not given here) [Peptide-16] ?
Solution: 4.7

Exercise: Any idea what t1/2 was measured for RDWCPRDLWVHCFA (cysteine pairing not given here; also: biotinylated, site not given here) [Peptide-3] ?
Solution: 6.2

Exercise: For the binder shown here, EDWCPRDLWVHCFA (cysteine pairing not given here; also: biotinylated, site not given here) [Peptide-7] , give the reported t1/2.
Solution: 3.1

Values from patent US20260274955A1
